test-system: T1, AFP158/HLA-A*02:01 complex (human)
T1 construct: biotinylated on the BSP by BirA for ELISA and panning; also called biotinylated AFP158/HLA-A*02:01 complex; Bio-AFP158
experiment: SPR; vs AS170036 VL1VH1;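 further: crude scFv captured on sensor chip, peptide–HLA complex flowed over at several concentrations, KD estimated from association and dissociation kinetic rates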
Entries and their Affinity increase values follow.
The reply should consist of the numeric value with the unit placed after it.

Previously resolved entries follow.
INSERT INTO measurements (binder, result) VALUES
  ('AS170036 VL1VH1 HL107N (scFv) scFv: QSALTQPRSVSGSPGQSVTISCAGTSSDVGSENYVSWYQQHPGKAPKLMIYQVNKRASGVPDRFSGSKSGNTASLTISGLQAEDEADYYCASYRSSDHNIVFGGGTKLTVLGGGGSGGGGSGGGGSEVQLVESGGGLVQPGGSLRLSCAASGFTFSSYAMSWVRQAPGKGLEWVSTINSGTGSPYYADSVKGRFTISRDNSKNTLYLQMNSLRAEDTAVYYCAKNFFDGSWFNGPPAMDYWGQGTLVTVSSHHHHHH', '0.5 fold'),
  ('AS170036 VL1VH1 HL107S (scFv) scFv: QSALTQPRSVSGSPGQSVTISCAGTSSDVGSENYVSWYQQHPGKAPKLMIYQVNKRASGVPDRFSGSKSGNTASLTISGLQAEDEADYYCASYRSSDHNIVFGGGTKLTVLGGGGSGGGGSGGGGSEVQLVESGGGLVQPGGSLRLSCAASGFTFSSYAMSWVRQAPGKGLEWVSTINSGTGSPYYADSVKGRFTISRDNSKNTLYLQMNSLRAEDTAVYYCAKNFFDGSWFSGPPAMDYWGQGTLVTVSSHHHHHH', '0.1 fold'),
  ('AS170036 VL1VH1 HF106W (scFv) scFv: QSALTQPRSVSGSPGQSVTISCAGTSSDVGSENYVSWYQQHPGKAPKLMIYQVNKRASGVPDRFSGSKSGNTASLTISGLQAEDEADYYCASYRSSDHNIVFGGGTKLTVLGGGGSGGGGSGGGGSEVQLVESGGGLVQPGGSLRLSCAASGFTFSSYAMSWVRQAPGKGLEWVSTINSGTGSPYYADSVKGRFTISRDNSKNTLYLQMNSLRAEDTAVYYCAKNFFDGSWWLGPPAMDYWGQGTLVTVSSHHHHHH', '0.4 fold');

Input line: Output Affinity increase of AS170036 VL1VH1 HD102L (scFv) scFv: QSALTQPRSVSGSPGQSVTISCAGTSSDVGSENYVSWYQQHPGKAPKLMIYQVNKRASGVPDRFSGSKSGNTASLTISGLQAEDEADYYCASYRSSDHNIVFGGGTKLTVLGGGGSGGGGSGGGGSEVQLVESGGGLVQPGGSLRLSCAASGFTFSSYAMSWVRQAPGKGLEWVSTINSGTGSPYYADSVKGRFTISRDNSKNTLYLQMNSLRAEDTAVYYCAKNFFLGSWFLGPPAMDYWGQGTLVTVSSHHHHHH
Output line: 0.1 fold

Ref: patent US20240279318A1
